# System: P. aeruginosa
# Assay protocol: Time-kill assay of GN lysin activity
# Format: cell-based, Pseudomonas aeruginosa
# Condition parameters: CAA/HuS; lysin 10 μg/mL; T = 0 7.8; buffer control 7.7
# Experimental: All treatments were incubated at 37° C. with aeration.
Observed property: Log10 CFU/mL T = l hr (Log10 CFU/mL)
One number for each entry, in Log10 CFU/mL.

# count of solved cases: 2
Molecule	Val
GN121: Modified GN37, C-terminal peptide RKKTRKRLKKIGKVLKWI, SEQ ID NO: 13 (protein) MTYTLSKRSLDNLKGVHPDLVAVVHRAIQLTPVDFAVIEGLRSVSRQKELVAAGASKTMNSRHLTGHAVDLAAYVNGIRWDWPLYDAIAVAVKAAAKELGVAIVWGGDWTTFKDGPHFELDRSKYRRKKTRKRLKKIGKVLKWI	7.4
GN108: Native lysin, GenBank YP_009288673.1, SEQ ID NO: 26 (protein, Acinetobacter phage phiAB6) MILTKDGFSIIRNELFEGKLDQTQVDAINFIVEKATEYGLTYPEAAYLLATIYHETGLPSGYRTMQPIKEAGSDSYLRSKKYYPYIGYGYVQLTWEENYERIGKLIGIDLVKNPEKALEPLIAIQIAIKGMLNGWFTGVGFRRKRPVSKYNKQQYVAARNIINGKDKAELIAKYAIIFERALRSL	5.7

Note: attention shifts to another entry.
GET /values?readout=Log10 CFU/mL T = l hr&item= GN37: Native lysin, WP_014102102.1/VanY, SEQ ID NO: 12; first disclosed in WO/2017/049233 (protein, listed as Micavibrio aeruginosavorus) MTYTLSKRSLDNLKGVHPDLVAVVHRAIQLTPVDFAVIEGLRSVSRQKELVAAGASKTMNSRHLTGHAVDLAAYVNGIRWDWPLYDAIAVAVKAAAKELGVAIVWGGDWTTFKDGPHFELDRSKYR
6.2
